System: Human immunodeficiency virus 1
Protocol text: Antiviral activity against HIV-1 harboring RT E138K mutant infected in human MT4 cells assessed as protection against virus-induced cytopathic effect incubated for 5 days by MTT assay
Type: functional, organism-based
Condition info: Human immunodeficiency virus 1, MT4, 120 h
Recorded endpoint: EC50 (µM)

COc1cc(-c2cnc(Nc3ccc(C#N)cc3)nc2Nc2c(C)cc(-c3ccncc3)cc2C)ccn1 0.016
Cc1cc(-c2ccncc2)cc(C)c1Nc1nc(Nc2ccc(C#N)cc2)ncc1-c1cncc(N)c1 0.013
Cc1cc(-c2ccncc2)cc(C)c1Nc1nc(Nc2ccc(C#N)cc2)ncc1-c1ccc(N)nc1 0.011
Cc1cc(-c2ccncc2)cc(C)c1Nc1nc(Nc2ccc(C#N)cc2)ncc1-c1ccncc1 0.041
Cc1cc(-c2ccncc2)cc(C)c1Nc1nc(Nc2ccc(C#N)cc2)ncc1-c1ccsc1 0.043
Cc1cn([C@H]2C[C@H](N=[N+]=[N-])[C@@H](CO)O2)c(=O)[nH]c1=O 0.03
N#Cc1ccc(Nc2nccc(Nc3c(F)cc(-c4ccncc4)cc3F)n2)cc1 0.01
Cc1cc(-c2cnc(Nc3ccc(C#N)cc3)nc2Nc2c(C)cc(-c3ccncc3)cc2C)ccn1 0.029
Cc1cc(-c2ccncc2)cc(C)c1Nc1nc(Nc2ccc(C#N)cc2)ncc1-c1ccnc(F)c1 0.008
Cc1cc(-c2ccncc2)cc(C)c1Nc1nc(Nc2ccc(C#N)cc2)ncc1-c1ccnc(Cl)c1 0.026
Cc1cc(-c2ccncc2)cc(C)c1Nc1nc(Nc2ccc(C#N)cc2)ncc1-c1cccs1 0.012
Cc1cc(-c2ccncc2)cc(C)c1Nc1nc(Nc2ccc(C#N)cc2)ncc1-c1cn[nH]c1 0.011
Cc1ccc(-c2cnc(Nc3ccc(C#N)cc3)nc2Nc2c(C)cc(-c3ccncc3)cc2C)cn1 0.007
Cc1cc(-c2ccncc2)cc(C)c1Nc1nc(Nc2ccc(C#N)cc2)ncc1-c1ccc(F)nc1 0.014
COc1ncc(-c2cnc(Nc3ccc(C#N)cc3)nc2Nc2c(C)cc(-c3ccncc3)cc2C)cc1N 0.014
Cc1cc(-c2ccncc2)cc(C)c1Nc1nc(Nc2ccc(C#N)cc2)ncc1-c1cncc(Cl)c1 0.045
Cc1ccnc2c1NC(=O)c1cccnc1N2C1CC1 0.142
Cc1cc(-c2ccncc2)cc(C)c1Nc1nc(Nc2ccc(C#N)cc2)ncc1-c1ccco1 0.007

Data credit: ChEMBL document CHEMBL6120973
